Values were extracted from patent US20210214435A1.

# System Tested: T1, human GPVI-2A extracellular domain fused at its C-terminus to human IgG1 Fc (GPVI-Fc) (human)
# T1 construct: Isoform 2, haplotype 'a'; also called hGPVI-2a
# T1 sequence (chain, as listed by the source limits assumed): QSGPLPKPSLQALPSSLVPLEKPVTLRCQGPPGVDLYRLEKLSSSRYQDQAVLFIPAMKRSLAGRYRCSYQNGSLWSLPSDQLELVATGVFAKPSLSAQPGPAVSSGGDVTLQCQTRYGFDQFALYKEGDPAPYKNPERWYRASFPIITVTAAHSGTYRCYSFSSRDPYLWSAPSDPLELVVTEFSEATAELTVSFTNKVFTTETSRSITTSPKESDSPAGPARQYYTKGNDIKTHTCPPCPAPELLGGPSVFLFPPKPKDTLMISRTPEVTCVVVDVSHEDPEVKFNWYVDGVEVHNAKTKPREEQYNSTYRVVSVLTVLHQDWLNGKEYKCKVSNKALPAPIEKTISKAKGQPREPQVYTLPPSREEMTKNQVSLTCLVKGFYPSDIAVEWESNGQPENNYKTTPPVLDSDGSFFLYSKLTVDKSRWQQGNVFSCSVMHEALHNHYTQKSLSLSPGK
# Experimental Protocol: ELISA, coated GPVI-Fc, Fab titrated
Metric: pEC50
Just so you know, pEC50 here is -log10 of the concentration in molar units; reply with that number alone.

# input Request the reported pEC50 associated with Fab #1 comprising a modified heavy chain constant region (Fab, V domains shown, Human Fab from the Ylanthia library; produced in HKB11 cells; also called Fab #1 mod; HC) VH: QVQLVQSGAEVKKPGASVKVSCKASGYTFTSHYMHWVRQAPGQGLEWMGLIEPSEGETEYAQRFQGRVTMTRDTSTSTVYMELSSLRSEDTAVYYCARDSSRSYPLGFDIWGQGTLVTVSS VL: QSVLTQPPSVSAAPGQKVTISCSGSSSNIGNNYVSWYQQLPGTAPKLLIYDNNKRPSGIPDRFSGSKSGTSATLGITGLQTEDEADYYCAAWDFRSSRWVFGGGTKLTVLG
# output 9.03

# input Give its pEC50 value. Item: Fab #3 comprising a modified heavy chain constant region (Fab, V domains shown, Human Fab from the Ylanthia library; produced in HKB11 cells; also called Fab #3 mod; HC) VH: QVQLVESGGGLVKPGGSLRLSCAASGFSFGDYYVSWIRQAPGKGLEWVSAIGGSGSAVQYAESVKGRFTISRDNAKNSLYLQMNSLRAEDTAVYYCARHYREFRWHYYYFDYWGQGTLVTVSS VL: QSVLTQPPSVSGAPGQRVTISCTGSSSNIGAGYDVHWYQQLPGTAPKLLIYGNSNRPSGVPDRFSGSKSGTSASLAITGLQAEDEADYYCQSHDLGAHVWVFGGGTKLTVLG
# output 9.32
